- System: RXF 631
- assayRemarks: NCI tumour cell line growth inhibition, 48 h
Activity calls are given as the source filed them. Rule as the data show it: active = GI50 up to about 1.1 µM and inactive = higher.
measuredParameter: GI50

compound: CCOC(=O)/C=C(\C)c1ccc(Cl)cc1
testTarget: RXF 631
GI50: > 100 µM (inactive)
--
compound: COC1(OC)CC2CCCCC2=C(C)N1S(=O)(=O)c1ccccc1 (stereo not drawn)
testTarget: RXF 631
GI50: > 100 µM (inactive)

Required: GI50, one value per compound below.
1. Brc1ccc2ns[s+]c2c1
2. CSc1cc(-c2cc3ccccc3o2)oc(=O)c1C#N
3. Cn1c(=O)nc2n(-c3ccc(F)c(F)c3)c3ccccc3nc-2c1=O
4. NC1=NN(c2ccccc2)C(=O)C1C(=O)C(=O)Nc1nccs1 (stereo not drawn)

OUT:
1. 5.06 µM (inactive)
2. 64.7 µM (inactive)
3. 16.4 µM (inactive)
4. > 100 µM (inactive)

Required: GI50, one value per compound below.
1. O=C(C(=O)N1CC2C=CC1CC2)c1c[nH]c2ccccc12 (stereo not drawn)
2. COC(=O)CCSC(=O)Nc1ccc(/N=N/c2ccccc2)cc1

OUT:
["> 100 µM (inactive)", "67.3 µM (inactive)"]
